# key: entry, value: IC50 at 24 h
- Procedure summary: Nephrotoxicity against HEK293 cells assessed as cell viability incubated for 24 hrs by MTT assay
- Assay type: toxicity, cell-based
- Experimental parameters: human
Peptide text beside a SMILES is read from it.
Report the figure in µg/mL without appending any unit label.

Take a look at these entries with their results.
{"Compound": "CC(C)C[C@@H]1NC(=O)[C@H](CCCN)NC(=O)[C@H](C(C)C)NC(=O)[C@@H]2CCCN2C(=O)[C@@H](CCCNC(=N)N)NC(=O)[C@H](CC(C)C)NC(=O)[C@H](CCCN)NC(=O)[C@H](C(C)C)NC(=O)[C@H](Cc2c[nH]c3ccccc23)NC(=O)[C@@H](Cc2ccccc2)NC1=O (HELM PEPTIDE1{L.[dF].W.V.[Orn].L.[dR].P.V.[Orn]}$PEPTIDE1,PEPTIDE1,1:R1-10:R2$$$V2.0)", "IC50 at 24 h (µg/mL)": 11.3}
{"Compound": "CC(C)C[C@@H]1NC(=O)[C@H](CCCN)NC(=O)[C@H](C(C)(C)C)NC(=O)[C@@H]2CCCN2C(=O)[C@@H](Cc2ccccc2)NC(=O)[C@H](CC(C)C)NC(=O)[C@H](CCCN)NC(=O)[C@H](C(C)(C)C)NC(=O)[C@@H]2CCCN2C(=O)[C@@H](Cc2ccccc2)NC1=O (HELM PEPTIDE1{L.[dF].P.[CC(C)(C)[C@H](N[*:1])C(=O)[*:2]].[Orn].L.[dF].P.[CC(C)(C)[C@H](N[*:1])C(=O)[*:2]].[Orn]}$PEPTIDE1,PEPTIDE1,1:R1-10:R2$$$V2.0)", "IC50 at 24 h (µg/mL)": 4.62}

# input for lookup
Data request: State, in one line, measured IC50 at 24 h of CC(C)C[C@@H]1NC(=O)[C@H](CCCN)NC(=O)[C@H](C(C)C)NC(=O)[C@H](Cc2c[nH]c3ccccc23)NC(=O)[C@@H](Cc2c[nH]c3ccccc23)NC(=O)[C@H](CC(C)C)NC(=O)[C@H](CCCN)NC(=O)[C@H](C(C)C)NC(=O)[C@H](Cc2c[nH]c3ccccc23)NC(=O)[C@@H](Cc2ccccc2)NC1=O (HELM PEPTIDE1{L.[dF].W.V.[Orn].L.[dW].W.V.[Orn]}$PEPTIDE1,PEPTIDE1,1:R1-10:R2$$$V2.0)
Data returned: 4.07
